# key: entry, value: pIC50
# assay target: human SARM1(50-724) (Homo sapiens, UniProt Q6SZW1)
# Construct: 40 nM human SARM1(50-724)
# Sequence (Q6SZW1 50-724): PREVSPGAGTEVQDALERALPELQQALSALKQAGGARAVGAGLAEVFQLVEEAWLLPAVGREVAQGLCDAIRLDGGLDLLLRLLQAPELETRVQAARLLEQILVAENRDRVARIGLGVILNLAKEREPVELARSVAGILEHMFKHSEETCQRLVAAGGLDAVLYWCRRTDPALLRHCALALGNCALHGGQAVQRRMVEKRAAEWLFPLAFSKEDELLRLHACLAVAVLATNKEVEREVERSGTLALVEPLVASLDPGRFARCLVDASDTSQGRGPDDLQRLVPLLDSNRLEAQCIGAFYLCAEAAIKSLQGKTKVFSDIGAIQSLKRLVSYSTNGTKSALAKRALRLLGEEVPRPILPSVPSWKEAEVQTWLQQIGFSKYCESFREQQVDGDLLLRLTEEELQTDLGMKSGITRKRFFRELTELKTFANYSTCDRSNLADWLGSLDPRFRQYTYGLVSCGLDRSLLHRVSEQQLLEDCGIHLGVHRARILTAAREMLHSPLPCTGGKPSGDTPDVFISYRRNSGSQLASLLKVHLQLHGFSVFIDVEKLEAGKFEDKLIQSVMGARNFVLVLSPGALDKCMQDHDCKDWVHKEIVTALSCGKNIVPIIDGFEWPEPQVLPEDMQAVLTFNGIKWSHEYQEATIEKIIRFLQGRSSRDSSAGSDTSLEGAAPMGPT
# assay name: SARM1 biological assay: HPLC measurement of NAD and NAM peak areas
# Format: biochemical
pIC50: −log10 of the molar value.

In [3]: df
Out[3]:
                                  compound  measured_attribute  reported
0  F[C@H]1C[C@@H](c2nc(Cc3ccncc3)c[nH]2)C1               pIC50    > 6.00

Inquiry: pIC50 lookup needed for Fc1cnccc1Cc1c[nH]c(C2CCC(F)(F)C2)n1 (centres unmarked) [Example 18A] , thanks.
Reply text: 5.00 to 6.00

Inquiry: For FC1(Cl)CC1c1nc(Cc2ccncc2)c[nH]1 (centres unmarked) then?
Reply text: > 6.00

Inquiry: For Fc1cnccc1Cc1coc(C2CC(F)(F)C2)n1 then?
Reply text: 4.00 to 5.00

Inquiry: For F[C@H]1C[C@H](c2nc(Cc3ccncc3)c[nH]2)C1 then?
Reply text: 5.00 to 6.00

* * *

# key: entry, value: pIC50
# assay target: human SARM1(50-724) (Homo sapiens, UniProt Q6SZW1)
# Construct: 40 nM human SARM1(50-724)
# assay name: SARM1 biological assay: HPLC measurement of NAD and NAM peak areas
# Assay type: biochemical
pIC50: −log10 of the molar value.

Look over these answered cases.
In [3]: df
Out[3]:
                                   compound      reported
0  FC(F)(F)[C@H]1C[C@@H](c2nc(Cc3ccncc3)c[nH]2)C1 (single isomer, unassigned) [Example 31A]  5.00 to 6.00
1       FC1(F)CCC(c2nc(Cc3ccncc3)c[nH]2)CC1  5.00 to 6.00
2  ClC1(Cl)C[C@@H]1c1nc(Cc2ccncc2)c[nH]1 (single isomer, unassigned) [Example 33A]        > 6.00

// switching to the query compound
Inquiry: pIC50 lookup needed for OC1(c2nc(Cc3ccncc3)c[nH]2)CCC(F)(F)CC1 , thanks.
Reply text: 5.00 to 6.00
